system: CCRF-CEM leukemia; assay: NCI tumour cell line growth inhibition, 48 h; in the data active = GI50 below about 0.43 µM; inactive = the rest
Just give me one of these, please: active, inactive

Worked examples follow.
molecule	group_label
CC[C@H](NC(=O)[C@H]1CCCCN1C)C(=O)N(C)[C@H](C[C@@H](OC(C)=O)c1nc(C(=O)N[C@@H](Cc2ccccc2)C[C@H](C)C(=O)O)cs1)C(C)C	active
CC[C@H]1CN2CCc3cc(OC)c(OC)cc3C2C[C@@H]1CC1NCCc2cc(OC)c(OC)cc21 (stereo partly drawn)	active
Cc1ccc(NC(=O)c2ccc(CN3CCN(C)CC3)cc2)cc1Nc1nccc(-c2cccnc2)n1	inactive
C=C(C)C(=O)O[C@H]1CC2=C[C@@H](C[C@@]3(C)O[C@@H]3[C@H]3OC(=O)C(=C)[C@@H]31)OC2=O	inactive
CN(C)c1ccc(/C=C/c2ccnc3c(O)cccc23)cc1	active

[ask] Assay outcome for Cc1cc(Cl)cc2c(N=Nc3ccc(S(N)(=O)=O)cc3)c(O)[nH]c12 : what was it?
[reply] inactive

[ask] Assay outcome for C[n+]1c(/C=C/c2c[nH]c3ccccc23)ccc2ccccc21 : what was it?
[reply] inactive

[ask] Assay outcome for COC1=CC(c2ccc[nH]2)=N/C1=C\c1[nH]c(C)c(CC(=O)OCc2ccccc2)c1CCC(=O)OCc1ccccc1 : what was it?
[reply] active
